Target: human TRPM8 (Homo sapiens (Human))
Sequence (Q7Z2W7 whole entry): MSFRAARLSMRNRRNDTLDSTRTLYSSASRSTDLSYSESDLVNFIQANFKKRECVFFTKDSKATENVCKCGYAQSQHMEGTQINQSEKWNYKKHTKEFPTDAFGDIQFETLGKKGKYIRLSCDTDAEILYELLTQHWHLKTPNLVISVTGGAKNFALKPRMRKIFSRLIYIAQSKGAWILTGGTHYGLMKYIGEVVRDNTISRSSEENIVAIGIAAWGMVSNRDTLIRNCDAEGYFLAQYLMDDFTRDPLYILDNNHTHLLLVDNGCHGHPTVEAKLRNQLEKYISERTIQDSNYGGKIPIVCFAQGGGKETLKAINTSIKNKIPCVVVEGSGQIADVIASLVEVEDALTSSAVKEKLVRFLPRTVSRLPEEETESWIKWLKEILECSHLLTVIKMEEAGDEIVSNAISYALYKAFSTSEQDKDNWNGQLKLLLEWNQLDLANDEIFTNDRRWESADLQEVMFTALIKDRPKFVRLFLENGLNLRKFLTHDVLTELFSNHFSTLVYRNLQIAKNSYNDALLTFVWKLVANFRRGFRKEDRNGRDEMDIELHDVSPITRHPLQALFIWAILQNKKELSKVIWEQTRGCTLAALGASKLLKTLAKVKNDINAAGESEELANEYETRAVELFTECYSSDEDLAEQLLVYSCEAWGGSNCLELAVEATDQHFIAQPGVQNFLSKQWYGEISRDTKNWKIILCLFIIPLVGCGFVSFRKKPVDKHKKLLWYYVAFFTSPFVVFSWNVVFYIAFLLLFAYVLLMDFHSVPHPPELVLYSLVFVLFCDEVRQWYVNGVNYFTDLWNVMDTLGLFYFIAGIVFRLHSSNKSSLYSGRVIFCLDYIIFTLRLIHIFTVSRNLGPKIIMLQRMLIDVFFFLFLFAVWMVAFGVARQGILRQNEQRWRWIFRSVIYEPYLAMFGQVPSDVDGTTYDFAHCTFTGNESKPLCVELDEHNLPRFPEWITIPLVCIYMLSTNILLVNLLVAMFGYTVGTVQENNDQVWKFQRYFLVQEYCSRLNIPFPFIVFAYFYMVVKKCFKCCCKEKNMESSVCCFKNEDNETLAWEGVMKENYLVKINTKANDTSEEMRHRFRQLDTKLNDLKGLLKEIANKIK
Test: TRPM8 inhibition assay (menthol-induced calcium influx, FDSS)
Conditions: HEK293 cells stably expressing human TRPM8; 100 μM menthol; Fura-2AM Ca2+ signal; read-out: TRPM8 Blocking Test (IC50)
measurement.kind: log10 of IC50 (log10 of the value in nM)
Annotation: log10 of IC50, nM basis.

// known answers, use as guide
> print(dat)
                                   compound  measurement.kind  reading
1  COC(C)(c1ccc(CN(c2ncc3ccccc3c2C)S(=O)(=O)c2ccc(C(=O)O)cc2)cc1)C(F)(F)C(F)(F)F (stereo not drawn) [Example 224]     log10 of IC50     0.77
2  Cc1nc2cc(CN(c3ncc4ccccc4c3C)S(=O)(=O)c3ccc(C(=O)O)cc3)ccc2s1 [Example 188]     log10 of IC50     2.19
3  Cc1c(N(Cc2ccc(F)c(C(F)(F)C3CC3)c2)S(=O)(=O)c2ccc(C(=O)O)cc2)ncc2ccccc12 [Example 207]     log10 of IC50     1.04
4  Cc1c(N(Cc2ccc3[nH]cc(Cl)c3c2)S(=O)(=O)c2ccc(C(=O)O)cc2)ncc2ccccc12 [Example 236]     log10 of IC50     2.72
5  Cn1ccc2c(Cl)cnc(N(Cc3ccc(OC(F)(F)F)cc3)S(=O)(=O)c3ccc(C(=O)O)cc3)c21 [Example 6]     log10 of IC50     1.34

Let's switch to this compound now.
Task: // lookup log10 of IC50 for Cc1c(N(Cc2ccc(CC3CC3)cc2)S(=O)(=O)c2ccc(C(=O)O)cc2)ncc2ccccc12 [Example 24]
Output: 0.66
